Listed next: entries and their corresponding IC50.
System: 519858-162-T-J1-PDC complex spheroid growth, % test/control
experiment description: Anticancer human tumor 519858-162-T-J1-PDC patient-derived colon adenocarcinoma cell line growth inhibition [Asc]
stated conditions: curve of first compound; second compound 0.0316 µM

compound	tgt	measured
NC1CCC(NC2CC2c2ccccc2)CC1 (stereo not given) + Cc1c(S(C)(=O)=O)c(-c2cc(F)cc(N3CCN(c4ccc(NS(=O)(=O)c5ccc(NC(CCN6CCC(C(=O)OCCCP(=O)(O)O)CC6)CSc6ccccc6)c(S(=O)(=O)C(F)(F)F)c5)cc4)CC3)c2)c(-c2ccc(Cl)cc2)n1C(C)C	519858-162-T-J1-PDC complex spheroid growth, % test/control	> 0.1 µM
CCN1CCN(Cc2ccc(Nc3ncc(F)c(-c4cc(F)c5nc(C)n(C(C)C)c5c4)n3)nc2)CC1 + CNC(C)C(=O)NC1CN(S(=O)(=O)c2cccc(S(=O)(=O)N3CCC4CCC(C(=O)NC(c5ccccc5)c5ccccc5)N4C(=O)C(NC(=O)C(C)NC)C3)c2)CCC2CCC(C(=O)NC(c3ccccc3)c3ccccc3)N2C1=O	519858-162-T-J1-PDC complex spheroid growth, % test/control	> 1 µM
CCN1C(C(=O)NC23CCC(C(=O)O)(CC2)CC3)C(c2cccc(Cl)c2F)C2(C(=O)Nc3cc(Cl)ccc32)C12CCCCC2 (stereo not given) + CNC(C)C(=O)NC1CN(S(=O)(=O)c2cccc(S(=O)(=O)N3CCC4CCC(C(=O)NC(c5ccccc5)c5ccccc5)N4C(=O)C(NC(=O)C(C)NC)C3)c2)CCC2CCC(C(=O)NC(c3ccccc3)c3ccccc3)N2C1=O	519858-162-T-J1-PDC complex spheroid growth, % test/control	> 3 µM
Cc1nc(N2CCC3(CC2)COC(C)C3N)c(CO)nc1Sc1ccnc(N)c1Cl (stereo not given) + Cc1c(S(C)(=O)=O)c(-c2cc(F)cc(N3CCN(c4ccc(NS(=O)(=O)c5ccc(NC(CCN6CCC(C(=O)OCCCP(=O)(O)O)CC6)CSc6ccccc6)c(S(=O)(=O)C(F)(F)F)c5)cc4)CC3)c2)c(-c2ccc(Cl)cc2)n1C(C)C	519858-162-T-J1-PDC complex spheroid growth, % test/control	2.1 µM

Next up:
The recorded IC50 for entry CNC(C)C(=O)NC1CN(S(=O)(=O)c2cccc(S(=O)(=O)N3CCC4CCC(C(=O)NC(c5ccccc5)c5ccccc5)N4C(=O)C(NC(=O)C(C)NC)C3)c2)CCC2CCC(C(=O)NC(c3ccccc3)c3ccccc3)N2C1=O (stereo not given) + Cc1c(S(C)(=O)=O)c(-c2cc(F)cc(N3CCN(c4ccc(NS(=O)(=O)c5ccc(NC(CCN6CCC(C(=O)OCCCP(=O)(O)O)CC6)CSc6ccccc6)c(S(=O)(=O)C(F)(F)F)c5)cc4)CC3)c2)c(-c2ccc(Cl)cc2)n1C(C)C equals > 1 µM

====

Overview of recorded viability, T/C for various molecules
System: 519858-162-T-J1-PDC complex spheroid growth, % test/control
experiment description: Anticancer human tumor 519858-162-T-J1-PDC cell line growth inhibition [Asc];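 further: seven day drug exposure begun three days after spheroid seeding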;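 on viability, T/C: 100% = DMSO vehicle wells and lower values mean less viable spheroid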
stated conditions: second compound 0.1 µM; first compound 0.00316 µM; stronger effect = lower value
Unit % implied. Number only.

Here's what some known entries look like.
molecule	measured
Cn1ncnc1[C@H]1c2n[nH]c(=O)c3cc(F)cc(c23)N[C@@H]1c1ccc(F)cc1 + CNC(C)C(=O)NC1CN(S(=O)(=O)c2cccc(S(=O)(=O)N3CCC4CCC(C(=O)NC(c5ccccc5)c5ccccc5)N4C(=O)C(NC(=O)C(C)NC)C3)c2)CCC2CCC(C(=O)NC(c3ccccc3)c3ccccc3)N2C1=O	83.4
O=C(c1ccc(F)c(F)c1Nc1ccc(I)cc1F)N1CC(O)([C@@H]2CCCCN2)C1 + Cc1c(S(C)(=O)=O)c(-c2cc(F)cc(N3CCN(c4ccc(NS(=O)(=O)c5ccc(NC(CCN6CCC(C(=O)OCCCP(=O)(O)O)CC6)CSc6ccccc6)c(S(=O)(=O)C(F)(F)F)c5)cc4)CC3)c2)c(-c2ccc(Cl)cc2)n1C(C)C	93.6

Please examine the following record next.
Please fill in: viability, T/C reported for COc1c(OCCCN2CCOCC2)ccc2c3n(c(=NC(=O)c4cnc(N)nc4)nc12)CCN3 + Cc1c(S(C)(=O)=O)c(-c2cc(F)cc(N3CCN(c4ccc(NS(=O)(=O)c5ccc(NC(CCN6CCC(C(=O)OCCCP(=O)(O)O)CC6)CSc6ccccc6)c(S(=O)(=O)C(F)(F)F)c5)cc4)CC3)c2)c(-c2ccc(Cl)cc2)n1C(C)C = 68.5

====

Catalogue of compounds with associated pIC50
Test system: 519858-162-T-J1-PDC complex spheroid growth, % test/control
experiment description: Anticancer human tumor 519858-162-T-J1-PDC cell line growth inhibition [Asc];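 further: seven day drug exposure begun three days after spheroid seeding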
stated conditions: curve of first compound; second compound 0.3 µM
pIC50: −log10 of the molar value.

A selection of reference data follows.
compound	tgt	pIC50
COc1c(OCCCN2CCOCC2)ccc2c3n(c(=NC(=O)c4cnc(N)nc4)nc12)CCN3 + CCN1C(C(=O)NC23CCC(C(=O)O)(CC2)CC3)C(c2cccc(Cl)c2F)C2(C(=O)Nc3cc(Cl)ccc32)C12CCCCC2	519858-162-T-J1-PDC complex spheroid growth, % test/control	6.13
CCN1CCN(Cc2ccc(Nc3ncc(F)c(-c4cc(F)c5nc(C)n(C(C)C)c5c4)n3)nc2)CC1 + CCN1C(C(=O)NC23CCC(C(=O)O)(CC2)CC3)C(c2cccc(Cl)c2F)C2(C(=O)Nc3cc(Cl)ccc32)C12CCCCC2	519858-162-T-J1-PDC complex spheroid growth, % test/control	< 6.00
NC(=O)C(=Cn1cnc(-c2cc(C(F)(F)F)cc(C(F)(F)F)c2)n1)c1cncnc1 + CCN1C(C(=O)NC23CCC(C(=O)O)(CC2)CC3)C(c2cccc(Cl)c2F)C2(C(=O)Nc3cc(Cl)ccc32)C12CCCCC2	519858-162-T-J1-PDC complex spheroid growth, % test/control	< 6.52
O=C(c1ccc(F)c(F)c1Nc1ccc(I)cc1F)N1CC(O)([C@@H]2CCCCN2)C1 + CCN1C(C(=O)NC23CCC(C(=O)O)(CC2)CC3)C(c2cccc(Cl)c2F)C2(C(=O)Nc3cc(Cl)ccc32)C12CCCCC2	519858-162-T-J1-PDC complex spheroid growth, % test/control	6.60
O=C(c1cc(Cc2n[nH]c(=O)c3ccccc23)ccc1F)N1CCN(C(=O)C2CC2)CC1 + CCN1C(C(=O)NC23CCC(C(=O)O)(CC2)CC3)C(c2cccc(Cl)c2F)C2(C(=O)Nc3cc(Cl)ccc32)C12CCCCC2	519858-162-T-J1-PDC complex spheroid growth, % test/control	< 5.00

Observed pIC50 on 519858-162-T-J1-PDC complex spheroid growth, % test/control, entry CNC(C)C(=O)NC1CN(S(=O)(=O)c2cccc(S(=O)(=O)N3CCC4CCC(C(=O)NC(c5ccccc5)c5ccccc5)N4C(=O)C(NC(=O)C(C)NC)C3)c2)CCC2CCC(C(=O)NC(c3ccccc3)c3ccccc3)N2C1=O (configuration not stated) + CCN1C(C(=O)NC23CCC(C(=O)O)(CC2)CC3)C(c2cccc(Cl)c2F)C2(C(=O)Nc3cc(Cl)ccc32)C12CCCCC2 , equals < 6.00

Per the reported 519858-162-T-J1-PDC complex spheroid growth, % test/control data, Cn1ncnc1[C@H]1c2n[nH]c(=O)c3cc(F)cc(c23)N[C@@H]1c1ccc(F)cc1 + CCN1C(C(=O)NC23CCC(C(=O)O)(CC2)CC3)C(c2cccc(Cl)c2F)C2(C(=O)Nc3cc(Cl)ccc32)C12CCCCC2 has pIC50 of < 7.00

====

Tested on: 519858-162-T-J1-PDC complex spheroid growth, % test/control
experiment description: Anticancer human tumor 519858-162-T-J1-PDC cell line growth inhibition [Asc];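 further: seven day drug exposure begun three days after spheroid seeding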;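 on viability, T/C: 100% = DMSO vehicle wells and lower values mean less viable spheroid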
stated conditions: second compound 0.00316 µM; first compound 3.16 µM; stronger effect = lower value
reported endpoint: viability, T/C (%)
Field format: number, assumed %, no unit text.

Solved entries:
molecule	measured
C=C(F)C(=O)N1CCN(c2nc(OCC3CCCN3C)nc3c2CCN(c2cccc4cccc(Cl)c24)C3)CC1CC#N (centres undefined) + CNC(C)C(=O)NC1CN(S(=O)(=O)c2cccc(S(=O)(=O)N3CCC4CCC(C(=O)NC(c5ccccc5)c5ccccc5)N4C(=O)C(NC(=O)C(C)NC)C3)c2)CCC2CCC(C(=O)NC(c3ccccc3)c3ccccc3)N2C1=O	94.8
O=C(c1cc(Cc2n[nH]c(=O)c3ccccc23)ccc1F)N1CCN(C(=O)C2CC2)CC1 + CNC(C)C(=O)NC1CN(S(=O)(=O)c2cccc(S(=O)(=O)N3CCC4CCC(C(=O)NC(c5ccccc5)c5ccccc5)N4C(=O)C(NC(=O)C(C)NC)C3)c2)CCC2CCC(C(=O)NC(c3ccccc3)c3ccccc3)N2C1=O	72.8
C=CC(=O)N1CCN(c2nc(=O)n(-c3c(C)ccnc3C(C)C)c3nc(-c4c(O)cccc4F)c(F)cc23)C(C)C1 (centres undefined) + CNC(C)C(=O)NC1CN(S(=O)(=O)c2cccc(S(=O)(=O)N3CCC4CCC(C(=O)NC(c5ccccc5)c5ccccc5)N4C(=O)C(NC(=O)C(C)NC)C3)c2)CCC2CCC(C(=O)NC(c3ccccc3)c3ccccc3)N2C1=O	88.3

Pending molecule:
get_value(item= C#Cc1c(F)ccc2cc(O)cc(-c3ncc4c(N5CC6CCC(C5)N6)nc(OCC56CCCN5CC(F)C6)nc4c3F)c12 (centres undefined) + CNC(C)C(=O)NC1CN(S(=O)(=O)c2cccc(S(=O)(=O)N3CCC4CCC(C(=O)NC(c5ccccc5)c5ccccc5)N4C(=O)C(NC(=O)C(C)NC)C3)c2)CCC2CCC(C(=O)NC(c3ccccc3)c3ccccc3)N2C1=O , readout=viability, T/C) returns 82.1
